test system: CCRF-CEM leukemia; assay: NCI tumour cell line growth inhibition, 48 h
# key: entry, value: TGI
Your answer is read as µM, so omit the unit and give the number.

>>> measured("COc1ccc2nc3cc([N+](=O)[O-])ccc3c(NCCO)c2c1")
13.4
>>> measured("CC1=CC2(C)C=C[C@@H]1C(=O)[C@@]1(C)CC[C@@](O)(C(C)C)[C@H]1CC2")
53.4
>>> measured("Cc1[nH]c(C(=O)Nc2cccc(OC3CCNCC3)c2)c(Cl)c1Cl")
4.26
>>> measured("C=C(C(=O)c1ccccc1)C(NC(C)(C)C)c1ccccc1 (stereo not given)")
43.7
>>> measured("OC1(C(Sc2ccccc2)Sc2ccccc2)CCCCCC1")
77.3
>>> measured("O=C(c1ccccc1)n1cc(/C=C/[N+](=O)[O-])c2ccccc21")
35.1
>>> measured("O=C(Cc1cc(O)ccc1O)NO")
48.6

Alright, here's another compound for you.
Which value of TGI has been reported for `CCOC(=O)c1c(C)n([O-])c2cc(F)c(F)cc2[n+]1=O` in the records? 7.84

====

test system: CAKI-1 renal; test: NCI tumour cell line growth inhibition, 48 h
# key: entry, value: TGI

>>> measured("O=S(=O)(NCCNc1nccc(-c2c(-c3ccc(F)cc3)nc3sccn23)n1)c1ccc(O)cc1")
"48.3 µM"
>>> measured("CC(=O)Oc1ccc2c(c1)[nH]c1c3ccc(OC(C)=O)cc3oc(=O)c21")
"> 100 µM"
>>> measured("CC(C)N(C(C)C)S(=O)(=O)CC12CCC(C/C1=N\\O)C2 (stereo not given)")
"> 100 µM"
>>> measured("COc1ccc2nc3cccc([N+](=O)[O-])c3c(NCCC(=O)O)c2c1")
"> 10 µM"
>>> measured("Cn1c2ncccc2n2c(=O)cc(O)cc12")
"> 100 µM"
>>> measured("CCCCCN1C(=O)C(Cc2ccccc2)N=C(c2ccc(O)cc2)c2cc(Cl)ccc21 (stereo not given)")
"35.1 µM"
>>> measured("COc1nc(=O)[nH]c2c1C(c1ccc([N+](=O)[O-])cc1)c1c(OC)nc(=O)[nH]c1O2")
"> 100 µM"
>>> measured("Cc1cc(NS(=O)(=O)c2ccc(NO)cc2)no1")
"> 100 µM"
>>> measured("CC(=O)N1C(c2[nH]c3ccccc3c2Cc2ccccc2)CCN1c1ccccc1 (stereo not given)")
"> 10 µM"

Alright, here's another compound for you.
Which value of TGI has been reported for NC(=O)C1=C(O)[C@@]2(O)C(=O)C3=C(O)c4c(O)cccc4CC3C[C@H]2CC1=O (stereo not given in full) in the records? 26.7 µM

====

test system: OVCAR-3 ovarian; assay: NCI tumour cell line growth inhibition, 48 h; in the data active = GI50 below about 0.43 µM; inactive = the rest
Your response should consist of one outcome taken from Y = active, N = inactive

Past entries and their recorded results:
>>> category("COc1cccc2nc(Nc3cccc(NC(=O)c4ccc(N5CCN(C)CC5)c(C(F)(F)F)c4)c3)ccc12")
"N"
>>> category("CC(=O)Oc1ccc(C2OC(c3ccc4ccccc4c3OC(C)=O)=NN2C(C)=O)c(OC(C)=O)c1 (stereo not drawn)")
"Y"
>>> category("Nc1c(C(=O)Nc2cccc(Cl)c2)sc2nc3c(cc12)C(O)CCC3 (stereo not drawn)")
"Y"
>>> category("CCOC(=O)C1=C(C)NC2SC(=O)/C(=C\\c3cccc(Cl)c3)N2C1c1ccccc1 (stereo not drawn)")
"N"
>>> category("O=C1/C(=C/c2ccc(Cl)cc2)CN(Cc2cn(CCCNc3ccnc4cc(Cl)ccc34)nn2)C/C1=C\\c1ccc(Cl)cc1")
"N"

Could you please tell me the result logged for `COc1cccc(C(=O)NNc2nc(Cl)nc(N3CCN(C(c4ccccc4)c4ccccc4)CC3)n2)c1` in this assay? N

Could you please tell me the result logged for `CS(=O)(=O)Nc1cc(-c2ccc3ncc(C#N)c(Nc4ccc(F)c(Cl)c4)c3c2)cnc1Cl` in this assay? Y

Could you please tell me the result logged for `C=C(C)[C@@H]1CC[C@]2(C(=O)O)CC[C@]3(C)[C@H](CC[C@@H]4[C@@]5(C)C/C(=C/c6ccco6)C(=O)C(C)(C)[C@@H]5CC[C@]43C)[C@@H]12` in this assay? N

Could you please tell me the result logged for `COc1ccc2nc3cc([N+](=O)[O-])ccc3c(NCCO)c2c1` in this assay? N

Could you please tell me the result logged for `c1cc[n+](Cc2c3ccccc3cc3c2ccc2ccccc23)cc1` in this assay? N

Could you please tell me the result logged for Cc1ccc(C2=NN(c3ccc(S(=O)(=O)NC(=O)NCc4ccccc4)cc3)C(c3ccc(N(C)C)cc3)C2)c(C)c1 (stereo not drawn) in this assay? N

Numbers sourced from PubChem BioAssay (NCI).
